- Test system: Nuclear hormone receptor DAF-12 (Heterodera glycines), GAL4 fusion
- experiment: H. glycines DAF-12 receptor agonists, primary screen, cell-based, luminescence, HEK293, GAL4 fusion, UAS-luciferase (AID 687014);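 note: 0% = DMSO wells and 100% = sodium butyrate wells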
- experimental_setup: HEK293 GAL4-hgDAF12 UAS-luciferase reporter, agonist luminescence; at 6.8 µM; active compounds read high; normalized to butyrate control
Out of some 370,000 compounds screened, about 6,800 (1.8%) were called active. The full list was thinned out, with actives kept by preference.
readout_type: activation (%)
Give a bare numeral; the unit % is implied.

q: What measured activation goes with CCOc1c(N2CCCCC2)c(=O)c1=O ?
a: -2.21

q: What measured activation goes with COc1cccc(CSc2nnc(-c3cccnc3)n2Cc2ccccc2)c1 ?
a: 1.72

q: What measured activation goes with O=C(c1cccc(C(F)(F)F)c1)N1CC[C@H]2[C@H](CCCN2Cc2cc(F)cc(F)c2)C1 ?
a: 1.35

q: What measured activation goes with O=C1C2C3C=CC(C4CC34)C2C(=O)N1/N=C/c1ccc(-c2ccccc2[N+](=O)[O-])o1 (configuration not stated) ?
a: -3.65

q: What measured activation goes with CC(=NNC(N)=O)c1ccc(Cl)c(-n2cccc2)c1 ?
a: 1.64

q: What measured activation goes with COC(=O)[C@]12C[C@H](CC(=O)N3CCOCC3)C(=O)N(Cc3ccc(Cl)cc3Cl)C1=C[C@H](COCc1ccccc1)O[C@@H]2C ?
a: -2.38

q: What measured activation goes with N#Cc1c(-c2ccccc2)c(-c2ccccc2)n[nH]c1=O ?
a: 0.04

q: What measured activation goes with Cc1cccc(N2C(=O)SC(SC(=Nc3ccccc3)Nc3ccccc3)C2=O)c1 (configuration not stated) ?
a: 12.4

q: What measured activation goes with COC(=O)c1ccccc1SC1CC(=O)N(c2cccc(C)c2)C1=O (configuration not stated) ?
a: -0.2

q: What measured activation goes with COC(=O)C1=C(C)N(Cc2ccc(C(F)(F)F)cc2)C(=NCc2ccc(C(F)(F)F)cc2)NC1c1cccc(Cl)c1 (configuration not stated) ?
a: 6.59

q: What measured activation goes with CN1CCN(/N=C/c2ccc(-c3ccc([N+](=O)[O-])cc3)o2)CC1 ?
a: 10.5

q: What measured activation goes with Clc1cccc2c1C1CC2CCN1Cc1ccccc1 (configuration not stated) ?
a: 0.38

q: What measured activation goes with CCOC(=O)c1c(NC(=S)Nc2ccccc2)sc2c1CCN(C)C2 ?
a: -0.1

q: What measured activation goes with Cc1cccc(-n2c(O)c(C=Nc3ccccc3N)c(=O)[nH]c2=O)c1 ?
a: 14.9

q: What measured activation goes with CCOC(=O)c1cn[nH]c1NC(=S)Nc1ccccc1 ?
a: 15.5

q: What measured activation goes with Cc1ccc(-c2nnc(SCC(=O)Nc3ccc(Oc4ccccc4)cc3)n2Cc2ccco2)cc1 ?
a: -0.14

q: What measured activation goes with O=C(Nc1cccc(Cl)c1N1CCOCC1)c1ccc2c(c1)OCCO2 ?
a: -1.47
